Molecular target: PD-L1 (Homo sapiens)
Sequence (Q9NZQ7 19-290): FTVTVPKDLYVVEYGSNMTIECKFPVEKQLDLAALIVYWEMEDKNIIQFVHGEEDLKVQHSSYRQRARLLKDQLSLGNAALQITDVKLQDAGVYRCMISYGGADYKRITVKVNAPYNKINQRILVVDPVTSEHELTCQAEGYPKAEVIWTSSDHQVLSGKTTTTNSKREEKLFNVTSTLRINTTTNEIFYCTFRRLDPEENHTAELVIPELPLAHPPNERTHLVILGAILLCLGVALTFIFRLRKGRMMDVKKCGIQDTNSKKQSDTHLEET
Assay: Total PD-L1 relative quantification by flow cytometry in cancer cell lines
Type: cell-based
Design: Alexa Fluor® 647 Rabbit monoclonal Anti-PD-L1 (ab215251); endogenous in cells; host or cells: HT-29
Details: MCF7; MCF-7, 100 µM, 24 h, total PD-L1 relative to negative control (DMSO)
The following molecules are shown together with reported remaining activity at 100 µM values.

### Prompt What value of measured remaining activity at 100 µM is listed for COc1ccc(C(OCCc2ccc(CCn3cc(-c4cccc(Br)c4)nn3)cc2)(c2ccccc2)c2ccc(OC)cc2)cc1 ?
### Response 87%

### Prompt What value of measured remaining activity at 100 µM is listed for COc1ccccc1-c1cn(CCc2ccc(CCO)cc2)nn1 ?
### Response 71%

### Prompt What value of measured remaining activity at 100 µM is listed for COc1ccc(C(OCCc2ccc(CCn3cc(-c4ccc(Br)cc4)nn3)cc2)(c2ccccc2)c2ccc(OC)cc2)cc1 ?
### Response 108%

### Prompt What value of measured remaining activity at 100 µM is listed for COc1cccc(-c2cn(CCc3ccc(CCO)cc3)nn2)c1 ?
### Response 88%

###

System: membrane VEGFR-2
Assay: Membrane VEGFR-2 relative quantification by flow cytometry in cancer cells co-cultured with Jurkat T cells
Assay type: cell-based, human
Conditions: MCF7 co-cultured with Jurkat T cells, 100 μM, 24 h, relative to non-treated co-cultures
The following molecules are shown together with reported %VEGFR2 (membrane) values.
Note: unit % is implicit; provide only the numeric part.

Completed entries (count: 5):
### Prompt What value of measured %VEGFR2 (membrane) is listed for COc1ccc(C(OCCc2ccc(CCn3cc(-c4cccc(Br)c4)nn3)cc2)(c2ccccc2)c2ccc(OC)cc2)cc1 [Compound 5] ?
### Response 85

### Prompt What value of measured %VEGFR2 (membrane) is listed for OCCc1ccc(CCn2cc(-c3cccc(Br)c3)nn2)cc1 [Compound 6] ?
### Response 98

### Prompt What value of measured %VEGFR2 (membrane) is listed for OCCc1ccc(CCn2cc(-c3ccccc3)nn2)cc1 [Compound 2] ?
### Response 86

### Prompt What value of measured %VEGFR2 (membrane) is listed for COc1ccc(-c2cn(CCc3ccc(CCO)cc3)nn2)cc1 [Compound 10] ?
### Response 105

### Prompt What value of measured %VEGFR2 (membrane) is listed for COc1ccc(-c2cn(CCc3ccc(CCOC(c4ccccc4)(c4ccc(OC)cc4)c4ccc(OC)cc4)cc3)nn2)cc1 [Compound 9] ?
### Response 76

Next:
### Prompt What value of measured %VEGFR2 (membrane) is listed for COc1ccc(C(OCCc2ccc(CCn3cc(-c4ccccc4OC)nn3)cc2)(c2ccccc2)c2ccc(OC)cc2)cc1 [Compound 13] ?
### Response 120

### Prompt What value of measured %VEGFR2 (membrane) is listed for COc1cccc(-c2cn(CCc3ccc(CCO)cc3)nn2)c1 [Compound 12] ?
### Response 103

### Prompt What value of measured %VEGFR2 (membrane) is listed for COc1ccc(C(OCCc2ccc(CCn3cc(-c4ccc(Br)cc4)nn3)cc2)(c2ccccc2)c2ccc(OC)cc2)cc1 [Compound 3] ?
### Response 81

###

The following compounds are shown together with reported viability at 100 µM values.
Tested on: Jurkat T cells
Assay: Jurkat T cell viability in co-culture with cancer cells (flow cytometry count)
Type: cell-based
Details: Homo sapiens, 24 h, MCF-7/Jurkat T co-culture, read-out: percentage of living Jurkat cells relative to non-treated co-cultures
Note: unit % is implicit; provide only the numeric part.

Completed entries (count: 6):
### Prompt What value of measured viability at 100 µM is listed for COc1ccccc1-c1cn(CCc2ccc(CCO)cc2)nn1 ?
### Response 127

### Prompt What value of measured viability at 100 µM is listed for COc1ccc(-c2cn(CCc3ccc(CCO)cc3)nn2)cc1 ?
### Response 148

### Prompt What value of measured viability at 100 µM is listed for COc1ccc(-c2cn(CCc3ccc(CCOC(c4ccccc4)(c4ccc(OC)cc4)c4ccc(OC)cc4)cc3)nn2)cc1 ?
### Response 84

### Prompt What value of measured viability at 100 µM is listed for OCCc1ccc(CCn2cc(-c3ccccc3)nn2)cc1 ?
### Response 87

### Prompt What value of measured viability at 100 µM is listed for COc1ccc(C(OCCc2ccc(CCn3cc(-c4ccccc4Br)nn3)cc2)(c2ccccc2)c2ccc(OC)cc2)cc1 ?
### Response 94

### Prompt What value of measured viability at 100 µM is listed for OCCc1ccc(CCn2cc(-c3cccc(Br)c3)nn2)cc1 ?
### Response 119

Next:
### Prompt What value of measured viability at 100 µM is listed for COc1ccc(C(OCCc2ccc(CCn3cc(-c4ccccc4OC)nn3)cc2)(c2ccccc2)c2ccc(OC)cc2)cc1 ?
### Response 79
